src = patent US20250297026A1

# TESTED SYSTEM: T1, canine CD20 (canine, UniProt Q3C2E2 1-297)
# T1 chain: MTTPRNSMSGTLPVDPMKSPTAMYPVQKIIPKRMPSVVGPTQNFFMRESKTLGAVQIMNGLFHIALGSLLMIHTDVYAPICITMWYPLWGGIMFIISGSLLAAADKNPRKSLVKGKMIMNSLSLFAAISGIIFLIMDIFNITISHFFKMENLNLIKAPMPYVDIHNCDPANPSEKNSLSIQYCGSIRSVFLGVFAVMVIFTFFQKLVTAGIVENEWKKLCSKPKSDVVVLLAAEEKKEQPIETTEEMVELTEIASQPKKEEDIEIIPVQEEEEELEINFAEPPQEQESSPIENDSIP
# TEST DESCRIPTION: cell-based or functional assay
OBSERVABLE: CDC Maximum killing (%)

binder="PMX066 (antibody, V domains shown) VH: AVQLVESGGDLVKPGGSLRLSCVASGITFSRYHMSWVRQAPGKGLQWVAYINSGGSATSYTDAVKGRFSISRDNGKNTLYLQMNSLRVEDSAVYYCTTLDLWGQGTLVTVSS VL: SYVLTQLPSKNVTLKQPAHITCGGDNIGSKSVHWYQQKLGQAPVLIIYYDSRRPTGIPERFSGANSGNTATLTINGALAEDEADYYCQMWDSSANVFGGGTHLTVL" measured_result=98.5%
binder="PMX077 (antibody, V domains shown) VH: EVQLVESGGDLVKPGGSLRLSCVASGITFSRYYMNWVRQAPGKGLQWVAYINSGGSPTTYADAVKGRFTISRDNAKNTLYLQMNSLRAEDTAVYYCTSFDYWGQGTLVTVSS VL: SYVLTQLPSKNVTLKQPAHITCGGDNIGSKSVHWYQQKLGQAPILIIYYDTSRPTGIPERFSGANSGNTATLTISGALAEDEADYYCQVWDSSANVFGGGTHLTVL" measured_result=98.7%
binder="PMX072 (antibody, V domains shown) VH: EVQLVESGGDLVKPGGSLRLSCVASGFTFSRYHMSWVRQAPGKGLQWVAFINTGRSSTNYADAVAGRFTISRDNAKNTLYLQMNSLRAEDTAVYYCSTLDYWGQGTLVTVSS VL: SYVLTQLPSKNVTLKQPAHITCGGDNIGSKSVHWYQQKLGQAPVLIIYYDSSRPTGIPERFSGANSGNTATLTISGALAEDEADYYCQVWDSSANVFGGGTHLTVL" measured_result=91.6%
binder="PMX075 (antibody, V domains shown) VH: EVQLVESGGDLVKPGGSLRLSCVASGITFSRYHMSWVRQAPGKGLQWVAFINTGRSSTNYADAVAGRFTISRDNAKNTLYLQMNGLTVEDTAVYYCSTLDYWGQGTLVTVSS VL: SYVLTQLPSKSVTLKQPAHITCGGDNIGSKSVHWYQQKLGQAPILIIYYDNNRPTGIPERFSGANSGNTATLTISGALAEDEADYYCHVWDSSVNVFGGGTHLTVL" measured_result=98.9%
binder="PMX076 (antibody, V domains shown) VH: EVQLVESGGDLVKPGGSLRLSCVASGITFSRYYMNWVRQAPGKGLQWVAYIDSGGSPTTYADAVKGRFTISRDNAKKALYLQMNSLRAEDTAVYYCTSFDYWGQGTLVTVSS VL: SYVLTQLPSKNVTLKQPAHITCGGDNIGSKSVHWYQQKLGQAPVLIIYYDSSRPTGIPERFSGANSGNTATLTISGALAEDEADYFCQVWDSSANVFGGGTHLTVL" measured_result=98.3%
binder="PMX078 (antibody, V domains shown) VH: EVQLVESGGDLVKPGGSLRLSCVASGLTFSRYHMSWIRQAPGKGLQWVAYISSGGSSTNYAGSVKGRFTVSRDNAKNTLYLQMNSLRAEDTAVYYCTSLDYWGQGTLVTVSS VL: SYVLTQLPSKNVTLKQPAHITCGGDNIGSKSVHWYQQKLGQAPVLIIYYDSRRPTGIPERFSGANSGNTATLTISGALAEDEADYYCQVWDSSDNVFGGGTHLTVL" measured_result=98.8%
binder="PMX080 (antibody, V domains shown) VH: EVQLVESGGDLVKPGGSLRLSCVASGLTFSRYYMNWVRQAPGKGLQWVAYIDSGGSPTNYADAVKGRFTISRDNAKNTLYLQMNSLRAEDTAVYYCSSFDYWGQGTLVTVSS VL: SYVVTQLPSNTVTLKQPAHITCGGDNIGSKSVHWYQQKLGQAPVLIIYYDSRRPTGIPERFSGANSGNTATLTISGALAEDEADYYCQVWDSSANVFGGGTHLTVL" measured_result=96.2%
binder="PMX074 (antibody, V domains shown) VH: EVQLVESGGDLVKPGGSLRLSCVASGFTFSRYYMTWVRQAPGKGLQWVAYINSDRRSTTYADAVKGRFTISRDNAKNTLYLQMNSLRAEDTAVYYCTTLEYWGQGTLVTVSS VL: SYVLTQLPSKNVTLKQPAHITCGGDNIGSKSVHWYQQKLGQAPVLIIYYDSRRPTGIPERFSGANSGNTATLTINGALAEDEADYYCQVWDSSANVFGGGTHLTVL" measured_result=98.9%
binder="PMX069 (antibody, V domains shown) VH: EMQLVESGGALVKPGGSLRLSCVASGFTFRRYHMSWVRQAPGQGLQWVAYIDSDGSPTSYGDSVKGRFTISRDNAKNTLFLQMNSLRVDDTAVYYCTTLDYWGRGTLVTVSS VL: SYVLTQVPSKNVTLKQPAHITCGGDNIGGKSVHWYQQKLGQAPLLIIYYDTRRPTGIPERFSGANSGNTATLTISRALAEDEADYYCQVWDSSGNVFGGGTHLTVI" measured_result=98.2%
binder="PMX073 (antibody, V domains shown) VH: EVQLVESGGDLVKPGGSLRLSCVASGFTFSRYYMNWVRQAPGKGLQWVAFITSGGSSTSYGDAVKGRFTISRDNAKNTLYLQMNSLRAEDTAVYYCTSFDYWGQGTLVTVSS VL: SYVLTQLPSKNVTLKQPAHITCGGDNIGSKSVHWYQQKLGQAPVLIIYYASSRPTGIPERFSGANSGNTATLTISGALAEDEADYYCQVWDSSANVFGGGTHLTVL" measured_result=96.3%
